molecular target: human Src enzyme (Homo sapiens, UniProt P12931); construct: purchased Carna Biosciences, Inc. 08-173; test: Src enzyme inhibitory activity (time-resolved fluorometry, biotinylated peptide phosphorylation); type: biochemical; conditions: read-out: SRC_IC50
Sequence (P12931 whole entry): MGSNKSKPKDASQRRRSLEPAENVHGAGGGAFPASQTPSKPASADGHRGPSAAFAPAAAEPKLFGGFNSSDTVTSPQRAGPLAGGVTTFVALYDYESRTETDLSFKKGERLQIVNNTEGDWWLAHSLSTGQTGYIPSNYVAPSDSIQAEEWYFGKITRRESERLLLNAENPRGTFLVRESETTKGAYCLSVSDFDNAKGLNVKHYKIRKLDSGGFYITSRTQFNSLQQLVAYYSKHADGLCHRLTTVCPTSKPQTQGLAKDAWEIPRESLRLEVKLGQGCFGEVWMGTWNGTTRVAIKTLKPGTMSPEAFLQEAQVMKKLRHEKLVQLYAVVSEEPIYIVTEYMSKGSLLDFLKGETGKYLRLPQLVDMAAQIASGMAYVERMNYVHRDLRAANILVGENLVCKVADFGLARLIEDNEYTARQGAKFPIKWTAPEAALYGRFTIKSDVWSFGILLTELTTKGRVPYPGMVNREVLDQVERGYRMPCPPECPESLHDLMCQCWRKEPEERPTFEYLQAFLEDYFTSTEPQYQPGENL
pIC50: −log10 of the molar value.
TEST READOUT: pIC50

Field: example entries. Status: answers known.
{"COMPOUND": "Cc1cc(Oc2c(F)cccc2F)ncc1-n1ncc(C(=O)c2cc3cc(F)c(N4C(=O)NC5(CC5)C4=O)cc3[nH]2)c1N [Example 5-1-343]", "pIC50": 7.00}
{"COMPOUND": "Cc1cc(Oc2c(F)cccc2F)ncc1-n1ncc(C(=O)c2cc3cc(F)c(N(C(C)C)S(C)(=O)=O)cc3[nH]2)c1N [Example 5-1-067]", "pIC50": 7.21}

I = CS(=O)(=O)Nc1cc2[nH]c(C(=O)c3cnn(-c4c(F)cc(Oc5cccc(F)c5F)cc4F)c3N)cc2cc1F [Example 5-1-030]
II = Cc1cc(Oc2ccccc2F)ccc1-n1ncc(C(=O)c2cc3cc(OCC(F)F)c(N4C(=O)[C@@H]5C[C@@H](NC(=O)OCC6c7ccccc7-c7ccccc76)CN5C4=O)cc3[nH]2)c1N [Example 5-1-270]
Hi, I'm comparing two records. Which one has the lower pIC50, I or II ? Answer = label.
II

----------
molecular target: human Src enzyme (Homo sapiens); construct: purchased Carna Biosciences, Inc. 08-173; test: Src enzyme inhibitory activity (time-resolved fluorometry, biotinylated peptide phosphorylation); type: biochemical; conditions: biotinylated peptide phosphorylation, read-out: SRC_IC50
TEST READOUT: IC50 (nM)

{"MOLECULE": "COc1cc2cc(C(=O)c3cnn(-c4c(C)cc(Oc5ccccc5)cc4F)c3N)[nH]c2cc1NS(C)(=O)=O [Example 4-1-007]", "STUDY SYSTEM": "human Src enzyme (Homo sapiens)", "EXPERIMENTAL RESULT": 61}
{"MOLECULE": "Cc1cc(Oc2ccccc2F)ccc1-n1ncc(C(=O)c2cc3cc(F)c(NS(=O)(=O)CC(=O)NC(C)C)cc3[nH]2)c1N [Example 4-10-002]", "STUDY SYSTEM": "human Src enzyme (Homo sapiens)", "EXPERIMENTAL RESULT": 27}

A = Cc1cc2cc(C(=O)c3cnn(-c4cnc(Oc5ccccc5F)cc4C)c3N)[nH]c2cc1NS(=O)(=O)c1cncc(C(F)(F)F)c1 [Example 5-1-487]
B = Cc1cc2cc(C(=O)c3cnn(-c4cnc(Oc5c(F)cccc5F)cc4C)c3N)[nH]c2cc1N1C(=O)NC(C)(C(F)(F)F)C1=O (stereo not shown) [Example 5-1-429]
C = Cc1cc(Oc2ccccc2F)ccc1-n1ncc(C(=O)c2cc3cc(OC(F)F)c(N4CCOCC4)cc3[nH]2)c1N [Example 4-25-024]
D = Cc1cc(Oc2c(F)cccc2F)ncc1-n1ncc(C(=O)c2cc3cc(OCC(F)F)c(NC4CCN(S(C)(=O)=O)CC4)cc3[nH]2)c1N [Example 4-23-021]
E = Cc1cc2cc(C(=O)c3cnn(-c4cnc(Oc5ccccc5F)cc4C)c3N)[nH]c2cc1N1CCOCC1 [Example 4-2-123]
Sort the molecules on IC50; start with the lowest figure. Please express your ranking as an ordered list of the labels.
D, E, C, B, A

----------
molecular target: human Yes1 enzyme (Homo sapiens, UniProt P07947); construct: made in house; test: Yes1 enzyme inhibitory activity (time-resolved fluorometry, biotinylated peptide phosphorylation); type: biochemical; settings: biotinylated peptide phosphorylation, read-out: YES_IC50
Sequence (P07947 whole entry): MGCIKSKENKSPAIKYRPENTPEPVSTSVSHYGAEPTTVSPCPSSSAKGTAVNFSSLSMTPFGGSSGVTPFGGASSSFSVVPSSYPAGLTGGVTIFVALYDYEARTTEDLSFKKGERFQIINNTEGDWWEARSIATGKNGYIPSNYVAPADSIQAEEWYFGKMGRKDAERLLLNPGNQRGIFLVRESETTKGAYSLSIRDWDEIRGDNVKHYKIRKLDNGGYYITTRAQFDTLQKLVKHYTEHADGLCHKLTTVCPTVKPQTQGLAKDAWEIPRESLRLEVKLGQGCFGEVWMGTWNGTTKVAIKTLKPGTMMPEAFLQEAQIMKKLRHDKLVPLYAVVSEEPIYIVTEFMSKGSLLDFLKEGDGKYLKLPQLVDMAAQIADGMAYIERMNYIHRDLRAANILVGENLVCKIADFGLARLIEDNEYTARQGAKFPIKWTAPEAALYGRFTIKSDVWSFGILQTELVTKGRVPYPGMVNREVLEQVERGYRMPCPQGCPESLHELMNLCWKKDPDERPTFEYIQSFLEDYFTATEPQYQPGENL
TEST READOUT: IC50 (nM)

A selection of reference data follows.
{"STRUCTURE AS SMILES": "Cc1cc(Oc2ccccc2F)cc(F)c1-n1ncc(C(=O)c2cc3cc(F)c(NS(C)(=O)=O)cc3[nH]2)c1N", "STUDY SYSTEM": "human Yes1 enzyme (Homo sapiens, UniProt P07947)", "IC50, nM": 1}
{"STRUCTURE AS SMILES": "Cc1cc2cc(C(=O)c3cnn(-c4cnc(Oc5c(F)cccc5F)cc4C)c3N)[nH]c2cc1NS(=O)(=O)C1CC1", "STUDY SYSTEM": "human Yes1 enzyme (Homo sapiens, UniProt P07947)", "IC50, nM": 3.1}
{"STRUCTURE AS SMILES": "Cc1cc2cc(C(=O)c3cnn(-c4ccc(Oc5ccccc5F)cc4C)c3N)[nH]c2cc1N1C(=O)[C@@H]2CCCN2C1=O", "STUDY SYSTEM": "human Yes1 enzyme (Homo sapiens, UniProt P07947)", "IC50, nM": 0.73}
{"STRUCTURE AS SMILES": "Cc1cc(Oc2ccccc2F)ncc1-n1ncc(C(=O)c2cc3cc(F)c(NS(=O)(=O)c4c(F)cc(F)cc4F)cc3[nH]2)c1N", "STUDY SYSTEM": "human Yes1 enzyme (Homo sapiens, UniProt P07947)", "IC50, nM": 17}

1 = Cc1cc(Oc2ccccc2F)ccc1-n1ncc(C(=O)c2cc3cc(F)c(N4C(=O)N[C@@H](CO)C4=O)cc3[nH]2)c1N
2 = Cc1cc(Oc2c(F)cccc2F)ncc1-n1ncc(C(=O)c2cc3cc(F)c(NS(C)(=O)=O)cc3[nH]2)c1N
// compare measured IC50 between 1 and 2 ; output the lower one // caller expects the label of the chosen entry
1

1 = Cc1cc2cc(C(=O)c3cnn(-c4cnc(Oc5c(F)cccc5F)cc4C)c3N)[nH]c2cc1N1C(=O)N[C@@H](Cc2ccccc2)C1=O
2 = Cc1cc2cc(C(=O)c3cnn(-c4cnc(Oc5ccccc5F)cc4C)c3N)[nH]c2cc1NS(=O)(=O)CC(=O)N1CCOCC1
3 = COc1cc2[nH]c(C(=O)c3cnn(-c4cnc(Oc5ccccc5F)cc4C)c3N)cc2cc1NS(C)(=O)=O
Order these by IC50, descending, and give the full ranking. Provide the labels, sequenced as the question asks.
1, 2, 3
(1: 5.4 nM, 2: 1.1 nM, 3: 0.36 nM)

P = Cc1cc(Oc2c(F)cccc2F)ncc1-n1ncc(C(=O)c2cc3cc(C4CC4)c(NS(=O)(=O)CCCF)cc3[nH]2)c1N
Q = Cc1cc(Oc2ccccc2F)ncc1-n1ncc(C(=O)c2cc3cc(OCC(F)F)c(NS(=O)(=O)c4cccc(C#N)c4)cc3[nH]2)c1N
Determine, for P and Q , which has the greater value of IC50. Returns: label corresponding to the selected item.
P
(P: 3.8 nM, Q: 1.7 nM)

----------
Target: human Lck enzyme (Homo sapiens, UniProt P06239)
Construct: purchased Carna Biosciences, Inc. 08-170
Sequence (P06239 whole entry): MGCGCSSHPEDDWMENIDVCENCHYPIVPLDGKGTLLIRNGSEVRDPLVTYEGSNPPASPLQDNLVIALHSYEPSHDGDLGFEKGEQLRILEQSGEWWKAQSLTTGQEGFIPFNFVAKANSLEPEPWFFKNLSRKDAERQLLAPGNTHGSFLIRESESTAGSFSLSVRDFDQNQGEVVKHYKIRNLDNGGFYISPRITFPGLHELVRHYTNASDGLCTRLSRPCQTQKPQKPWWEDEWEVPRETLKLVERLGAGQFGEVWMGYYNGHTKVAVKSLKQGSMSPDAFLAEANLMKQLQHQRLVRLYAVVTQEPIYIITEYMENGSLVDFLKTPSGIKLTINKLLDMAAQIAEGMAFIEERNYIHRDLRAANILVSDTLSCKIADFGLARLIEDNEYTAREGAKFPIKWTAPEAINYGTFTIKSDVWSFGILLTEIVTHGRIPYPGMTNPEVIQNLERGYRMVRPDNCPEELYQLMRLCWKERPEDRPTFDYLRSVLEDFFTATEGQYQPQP
Experiment: Lck enzyme inhibitory activity (time-resolved fluorometry, biotinylated peptide phosphorylation)
Assay type: biochemical
Settings: biotinylated peptide phosphorylation, read-out: LCK_IC50
Experimental: 3. Lck Enzyme Inhibitory Activity Lck inhibitory activity was determined based on activity of inhibiting phosphorylation reaction of a biotinylated peptide (EGPWLEEEEEAYGWMDF) using a human Lck enzyme (manufactured by Carna Biosciences, Inc., cat 08-170). The phosphorylated biotinylated peptide was detected by time-resolved fluorometry using an anti-phosphorylated tyrosine antibody conjugated to europium cryptate, and streptavidin conjugated to XL665, an allophycocyanin derivative. […]
TEST READOUT: IC50 (nM)

{"MOLECULE": "Cc1cc2cc(C(=O)c3cnn(-c4cnc(Oc5c(F)cccc5F)cc4C)c3N)[nH]c2cc1N1C(=O)[C@@H]2C[C@@H](O)CN2C1=O [Example 5-1-455]", "STUDY SYSTEM": "human Lck enzyme (Homo sapiens, UniProt P06239)", "TEST READOUT": "IC50", "EXPERIMENTAL RESULT": 2.6}

I = Cc1cc(Oc2ccccc2F)ccc1-n1ncc(C(=O)c2cc3cc(OCC(F)F)c(N4CCCC4=O)cc3[nH]2)c1N [Example 4-21-002]
II = Cc1cc(Oc2ccccc2Cl)cc(F)c1-n1ncc(C(=O)c2cc3cc(F)c(NS(C)(=O)=O)cc3[nH]2)c1N [Example 4-7-009]
// returns I or II , whichever has the lower IC50 Choose, then provide that item's label.
I

----------
biological target: human Yes1 enzyme (Homo sapiens); construct: made in house; experiment: Yes1 enzyme inhibitory activity (time-resolved fluorometry, biotinylated peptide phosphorylation); format: biochemical; settings: read-out: YES_IC50
pIC50: −log10 of the molar value.
TEST READOUT: pIC50

I = Cc1cc(-n2ncc(C(=O)c3cc4cc(OC5CCN(C(C)C)CC5)c(C5CCOCC5)cc4[nH]3)c2N)ccc1Oc1ccccc1F
II = Cc1cc(Oc2ccccc2F)ccc1-n1ncc(C(=O)c2cc3cc(O)c(NS(C)(=O)=O)cc3[nH]2)c1N
III = Cc1cc2cc(C(=O)c3cnn(-c4ccc(Oc5ccccc5F)cc4C)c3N)[nH]c2cc1N1C(=O)[C@@H]2C[C@H](NC(=O)OCC3c4ccccc4-c4ccccc43)CN2C1=O
Order the items by recorded pIC50; the first position goes to the largest value. Answer by writing out the labels in the requested order.
II, I, III
(II: 9.02, I: 8.68, III: 7.92)
